System: HCT-15 colon
testDescription: NCI-60 one-dose screen, 48 h
runConditions: 10 µM unless noted
Description: Growth inhibition of the HCT-15 human tumor cell line is measured as a screen for anti-cancer activity. Cells are grown in 96 well plates and exposed to the test compound for 48 hours. Compounds are tested at a single concentration, which is 10^-5 M for most compounds. The reported endpoint is percent growth (GI% or GIPRCNT), where numbers from 0 - 100% represent growth inhibition, and numbers from -100% - 0 represent cell death. For example, a value of 40 represents 60% growth inhibition. […]
The panel holds about 83,000 compounds, 20% with a hit somewhere; the sample as a whole holds those more often. The source made the active and inactive calls. How the source made its calls: active means growth percent below 10; inactive means the rest.
Lab note: assign the record to one of T for active, F for inactive

C=CCNC(=O)Cc1c(-c2ccc(OC)cc2)oc2c(OC)c3c(c(OC)c12)OCO3 : F

# outcome recorded in this test, key = `Cc1ccc(C(=O)Nc2ccc(CN3CCN(C)CC3)c(C(F)(F)F)c2)cc1C#Cc1cnc(N)cc1C#N`
T
